Value source: patent US7598382B2

Structures can show the parent of a compound that is named as a salt.

[
  {
    "Molecule": "CC(C)Cn1cnc2c(N)nc3ccc(-c4csc5ccccc45)cc3c21",
    "melting point": "247 to 248 °C"
  },
  {
    "Molecule": "CCCCc1nc2c(N)nc3cc(-c4ccc(OC)cc4OC)ccc3c2n1CC(C)C",
    "melting point": "187 to 189 °C"
  },
  {
    "Molecule": "CCCc1nc2c(N)nc3cc(CCc4ccc(OC)cc4)ccc3c2n1CC(C)C (as salt: HCl)",
    "melting point": "> 250 °C"
  },
  {
    "Molecule": "CCCc1nc2c(N)nc3cc(CCc4ccc5sc(C)nc5c4)ccc3c2n1CC(C)C (as salt: HCl)",
    "melting point": "> 250 °C"
  },
  {
    "Molecule": "CCOCc1nc2c(N)nc3cc(-c4ccccc4)ccc3c2n1CCOc1ccccc1",
    "melting point": "159 to 160 °C"
  },
  {
    "Molecule": "COCc1nc2c(N)nc3cc(-c4cccc(C(=O)N5CCOCC5)c4)ccc3c2n1CC(C)(C)O (hydrate or solvate)",
    "melting point": "176 to 177 °C"
  },
  {
    "Molecule": "CCCCc1nc2c(N)nc3cc(-c4ccc(OCCC)cc4)ccc3c2n1CC(C)C",
    "melting point": "194 to 197 °C"
  },
  {
    "Molecule": "CCOCc1nc2c(N)nc3cc(CCc4ccc(C(F)(F)F)cc4)ccc3c2n1CC(C)C",
    "melting point": "175.5 to 178 °C"
  },
  {
    "Molecule": "CCOCc1nc2c(N)nc3cc(-n4cccn4)ccc3c2n1CCCOC",
    "melting point": "159 to 160 °C"
  },
  {
    "Molecule": "CCc1nc2c(N)nc3cc(-c4cccnc4)ccc3c2n1CC1CCN(S(C)(=O)=O)CC1 (hydrate or solvate)",
    "melting point": "228 to 229 °C"
  }
]
